targetOrTestSystem: human RORγt LBD (Homo sapiens, UniProt P51449)
Sequence (P51449 258-518): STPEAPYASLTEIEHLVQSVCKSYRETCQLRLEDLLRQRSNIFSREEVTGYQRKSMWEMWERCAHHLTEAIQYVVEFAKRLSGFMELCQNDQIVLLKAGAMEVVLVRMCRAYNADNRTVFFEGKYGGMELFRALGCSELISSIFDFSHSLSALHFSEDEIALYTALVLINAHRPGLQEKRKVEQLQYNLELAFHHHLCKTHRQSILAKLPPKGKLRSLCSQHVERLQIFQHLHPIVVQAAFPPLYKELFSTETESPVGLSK
experimentSummary: RORγt (LBD) Reporter Assay (GAL4 luciferase, HEK293T)
conditionDescription: HEK293T cells, 24 hours with compound
pIC50: −log10 of the molar value.
Below, each of the molecules is paired with its reported pIC50 value.

molecule	targetOrTestSystem	pIC50
COc1nc2ccc(C(O)c3cnc(C)n3C)cc2c(Cl)c1Cc1ccc(F)cc1 (single isomer, unassigned) [Example 8b]	human RORγt LBD (Homo sapiens, UniProt P51449)	< 5.22
COc1nc2ccc(C(O)c3cnc(C)n3C)cc2c(Cl)c1Cc1ccc(F)cc1 (single isomer, unassigned) [Example 8c]	human RORγt LBD (Homo sapiens, UniProt P51449)	< 5.22

Fill in pIC50 for record COc1nc2ccc(C(O)c3cnc(C)n3C)cc2c(Cl)c1Cc1ccc(F)cc1 (stereo not drawn) [Example 8a] < 5.22

###

targetOrTestSystem: human RORγt ligand binding domain (RORγt LBD) (Homo sapiens)
Construct: His-tag (N); TurboTEV protease cleavage site (ENLYFQG) (N)
Sequence (P51449 with tags, fused parts or gaps): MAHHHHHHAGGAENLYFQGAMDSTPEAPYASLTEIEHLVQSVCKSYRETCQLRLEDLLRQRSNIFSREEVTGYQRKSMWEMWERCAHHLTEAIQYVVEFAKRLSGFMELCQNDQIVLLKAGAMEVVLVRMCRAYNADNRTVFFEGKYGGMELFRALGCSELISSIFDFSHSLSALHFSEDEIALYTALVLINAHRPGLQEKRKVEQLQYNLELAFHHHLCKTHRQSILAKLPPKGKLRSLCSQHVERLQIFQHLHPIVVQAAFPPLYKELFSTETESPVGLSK
experimentSummary: RORγt ThermoFluor assay (thermal shift binding affinity)
conditionDescription: 0.065 mg/mL RORγt, pH 7.0; estimated from concentration response curves
assayMetric: pKd
The read-out pKd is expressed as -log10 of concentration in moles per litre.

compound	pKd
COc1nc2ccc(C(O)c3cnc(C)n3C)cc2c(Cl)c1Cc1ccc(F)cc1 (single isomer, unassigned) [Example 8b]	6.74

Fill in pKd for record COc1nc2ccc(C(O)c3cnc(C)n3C)cc2c(Cl)c1Cc1ccc(F)cc1 (single isomer, unassigned) [Example 8c] 7.02
